B1: tRNA (parent)
chain: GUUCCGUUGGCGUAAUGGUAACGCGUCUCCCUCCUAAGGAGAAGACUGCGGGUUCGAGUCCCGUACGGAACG

Variants of: B1
Protocol summary: yeast fitness relative to wild type (ratio to wild type); higher = fitter; tRNA-Arg(CCU), competitive growth, 37 C, YPD
Variants at the floor of the assay were thinned out.
Value type: yeast fitness

{"Residues": "GUUUCGUUGGCGUAAUGCUCACGCGUCUCCCUCCUAAGAAGAAGACUGCGGGUUCGAGUCCCGUACGGAACG [C4U G18C A20C G39A]", "Reported relation": "≤", "Recorded measurement": 0.5}
{"Residues": "GUUCCGUUGGCGUAAUGGUAAUGCGUCUCCCCCCUAAGGAGAAGACUGCGGGUUCGAGUCGCGUACGGCACG [C22U U32C C61G A69C]", "Reported relation": "≤", "Recorded measurement": 0.5}
{"Residues": "GUUACGUUGACGUAAUGGUAACACGUCUCCCUCCUAAGGAGAAGACUGCGGGUUCGAGUCCCGUACGGAACG [C4A G10A G23A]", "Reported relation": "≤", "Recorded measurement": 0.5}
{"Residues": "GUUCCGUUCGCGUAAUGGUAAGGCGUCUCCCUCCUAAGGAGAAGACUGCGGGUUCGAGUCCAGUACGGAACG [G9C C22G C62A]", "Reported relation": "≤", "Recorded measurement": 0.5}
{"Residues": "GUUCCGUUGGCGUAAUGGUAACGCGUACGCCUCCUAAGGAGAAGACUGCGGGUUCGAGUCCCGUUCGGAACG [C27A U28C C29G A65U]", "Reported relation": "≤", "Recorded measurement": 0.5}
{"Residues": "GUUCUGUUGGCGUAAUGGUAACGCGUCUCCCUUCUAAGGAGAAGACUGCGGGUCCGAAUCCCGUACGGAACG [C5U C33U U54C G58A]", "Reported relation": "=", "Recorded measurement": 0.703}
{"Residues": "GUUCCGUUGGCGUAAUGGUAAUGCGUCUCCCUCCUAAGGAGAGGACUGCGGGUUCGAGUCCCGUACGGAACG [C22U A43G]", "Reported relation": "=", "Recorded measurement": 0.835}
{"Residues": "GUUUCGUUGGCGUAAUGGCAACGCGUCUCCCUCCUAAGGAGAUGACUGCGGGUUCGAGUCCCGUACGGAACG [C4U U19C A43U]", "Reported relation": "=", "Recorded measurement": 0.955}
{"Residues": "GUUCCGUUGGCGUAAUGGUGACGUGUCUCCAUCCUAAGGAGAAGACUGCGGGUUCGAGUCCCGUACGCAACG [A20G C24U C31A G68C]", "Reported relation": "≤", "Recorded measurement": 0.5}
{"Residues": "GUUCCGUAGGCGUAAUGGUAACGCGUCUUCCUUCUAAGGAGAAGACUGCGGGAUCGAGGCCCGUACGGAACG [U8A C29U C33U U53A U59G]", "Reported relation": "≤", "Recorded measurement": 0.5}
{"Residues": "GUACCGUUGGCGUAAUGGUAACGCGUCUCCCUCCUAAGGAGAAGACUGCGGGUUCGAGUACCGUACGGAACG [U3A C60A]", "Reported relation": "=", "Recorded measurement": 0.677}
{"Residues": "GUCCCGUUGGCGUAAUGGUAACGCGUCUCCGUCUUAAAGAGAAGACUGCGGGUUCGAGUCCCGUACGGAACG [U3C C31G C34U G38A]", "Reported relation": "≤", "Recorded measurement": 0.5}
{"Residues": "GUUCCGUUAGGGUAAUGGUAACGGGUCUCCCACCUAAGGAGAAGACUGCGGGUUCGACUCCCGUACGGAACG [G9A C11G C24G U32A G58C]", "Reported relation": "≤", "Recorded measurement": 0.5}
{"Residues": "GUUCCGUUGGCGUAACGGUAACGCGUCUCCCUCCUAAGGAGGAGACUGCGGGUUCGAGUCCCGUACGGAACG [U16C A42G]", "Reported relation": "=", "Recorded measurement": 0.904}
{"Residues": "GUUCCGUUGGCGUAAUGGUAGCGCGUCUCCCUCCUAAGGAGAAGACUGCGGGUUCGACUCCCGUACGGAACG [A21G G58C]", "Reported relation": "=", "Recorded measurement": 1.01}
{"Residues": "GUUCCGUUGGCGUAAUGGUAACGCGUCUCCCUCCUAUGGAGAAGAAUGCGGGUUCGAGUCCCGUACGGAACG [A37U C46A]", "Reported relation": "=", "Recorded measurement": 0.816}
{"Residues": "GUUCCGUUGACGUAAUCGUAACGCGUCUCGCUGCUAAGGAGAAGACUGCGGGUUCGAGUCCCGUACGGAACG [G10A G17C C30G C33G]", "Reported relation": "=", "Recorded measurement": 0.578}
{"Residues": "GUUUCGUUGGCGUAAUGGUAACGCGCCUCCCUCCUAAGGAGUAGACUGCCGGUUCGAGUCCCGUUCGGAACG [C4U U26C A42U G50C A65U]", "Reported relation": "=", "Recorded measurement": 0.552}
{"Residues": "GUUCCGUUGGCGUUAUGGUAACGCGCCUCCUUCCUAAGGAGAAGACUGCGGGUUCGAGUCCCGUACGAAACG [A14U U26C C31U G68A]", "Reported relation": "≤", "Recorded measurement": 0.5}
{"Residues": "GUUCCGUUGCCGUAAUAGUAACGCGUCUCCCUCCUAAGGAGUAGACUGCGGGUUCGAGUCCCGUACGGAACG [G10C G17A A42U]", "Reported relation": "≤", "Recorded measurement": 0.5}
{"Residues": "GUUCCGUUGCCGUAAUGGUAACGCGUAUCCCUCCUAAGGAGAAGACUGCGGGUUCGAGUCUCGUACGGAACG [G10C C27A C61U]", "Reported relation": "≤", "Recorded measurement": 0.5}
{"Residues": "GUUCCGUGGGCGUAAUGGUAACGCGUUUCACUCCUAAGGAGACGACUGCGGGUUCGAGUCCCGUACGGAACG [U8G C27U C30A A43C]", "Reported relation": "≤", "Recorded measurement": 0.5}
